Reported IC50 is given for each of the following compounds.
- target_or_test_system: beta-catenin/TCF4 engagement (Homo sapiens)
- Construct: expressed in transfected cells; host or cells: HEK293
- protocol_text: Nano-BRET target engagement assay (B-cat-Halo & TCF4-Luc in HEK293 cells)
- Type: cell-based
- condition_details: absolute IC50; read-out: NanoBRET Abs IC50
Give the value in µM but do not write µM after it.

INSERT INTO results (compound, target_or_test_system, property, unit_abbreviation, value) VALUES
  ('CC(=O)N1CCC[C@]12CC=CCCCC1(CCCC=CCCCOC(=O)N3CC[C@@](C(=O)N[C@@H](Cc4ccccc4C(F)(F)F)C(=O)N[C@@H](Cc4csc5ccccc45)C(=O)N[C@@H](CCC(N)=O)C(N)=O)(C3)NC(=O)[C@H](Cc3ccccc3)NC(=O)[C@H](Cc3ccccc3)NC(=O)[C@H](C)NC(=O)[C@H](C)NC(=O)[C@H](Cc3ccccc3C(=O)O)NC(=O)[C@H](CC(=O)O)NC1=O)NC(=O)[C@H](CC(C)(C)C)NC(=O)[C@H](CC(=O)O)NC2=O (some centres unmarked)', 'beta-catenin/TCF4 engagement (Homo sapiens)', 'IC50', 'µM', 12.7);

Here is the next item to consider.
Form field IC50, entry CC(=O)N1CCN(C(=O)CC[C@@H]2NC(=O)[C@H](Cc3cccc(C(=O)O)c3)NC(=O)[C@H](CC(=O)O)NC(=O)C3(CCCC=CCCCOC(=O)N4CC[C@@](C(=O)N[C@@H](Cc5ccccc5C(F)(F)F)C(=O)N[C@@H](Cc5csc6ccccc56)C(=O)N[C@@H](C)C(N)=O)(C4)NC(=O)[C@H](CC(C)C)NC(=O)[C@H](Cc4ccccc4)NC(=O)[C@H](C)NC2=O)CCCC=CC[C@]2(CCCN2C(C)=O)C(=O)N[C@@H](CC(=O)O)C(=O)N[C@@H](CC(C)(C)C)C(=O)N3)CC1 (some centres unmarked) : 1

----------
- protocol_text: CHI Log D procedure
- Assay type: physicochemical
- condition_details: pH 7.4
List of CHI Log D values.

INSERT INTO measurements (compound, property, value) VALUES
  ('CC(=O)N1CCC[C@]12CC=CCCCC1(CCCC=CCCCCCC[C@@](C)(C(=O)N[C@@H](Cc3ccsc3)C(=O)N[C@@H](Cc3csc4ccccc34)C(=O)N[C@@H](Cc3c[nH]cn3)C(N)=O)NC(=O)[C@H](CC(N)=O)NC(=O)[C@H](Cc3ccccc3)NC(=O)[C@H](C)NC(=O)[C@H](C)NC(=O)[C@H](CCC(=O)O)NC(=O)[C@H](CC(=O)O)NC1=O)NC(=O)[C@H](C)NC(=O)[C@H](CC(=O)O)NC2=O (some centres unmarked) [I-516]', 'CHI Log D', 2.072);

Here's the next entry for you.
CC(=O)N1CCC[C@]12CC=CCCCC1(CCCC=CCCCOC(=O)N3CC[C@@](C(=O)N[C@@H](Cc4ccsc4)C(=O)N[C@@H](Cc4csc5ccccc45)C(=O)N[C@@H](CCC(N)=O)C(N)=O)(C3)NC(=O)[C@H](CC(N)=O)NC(=O)[C@H](Cc3ccccc3)NC(=O)[C@H](C)NC(=O)[C@H](C)NC(=O)[C@H](CN(CC(=O)O)CC(F)(F)F)NC(=O)[C@H](CC(=O)O)NC1=O)NC(=O)[C@H](CC(C)(C)C)NC(=O)[C@H](CC(=O)O)NC2=O (single isomer, unassigned) [I-762] yielded CHI Log D of 2.247

----------
- target_or_test_system: full-length beta-Catenin (Uniprot ID P35222) (Homo sapiens, UniProt P35222)
- Construct: 10 nM full-length beta-Catenin (Uniprot ID P35222)
- protocol_text: Fluorescence polarization IC50 (beta-catenin / 5FAM-TCF4 10-53 competition)
- Format: binding
- condition_details: fluorescence polarization; read-out: beta-Catenin FP IC50
Non-standard residues stand in square brackets, D forms with d. Residues, ends and D or L forms follow the SMILES beside them. Bta = N[C@@H](Cc1csc2ccccc12)C(=O)O; tBuAla = CC(C)(C)C[C@H](N)C(=O)O; 3Thi = N[C@@H](Cc1ccsc1)C(=O)O; αMeP = C[C@@]1(C(=O)O)CCCN1; Aib = CC(C)(N)C(=O)O
property: log10 IC50 (log10 of the value in µM)
Give log10 of IC50, with IC50 taken in µM.

Some compounds with known log10 IC50 results, for comparison:
INSERT INTO measurements (compound, value) VALUES
  ('CC(=O)N1CCC[C@]12CC=CCCCC1(CCCC=CCCCCCC[C@@](C)(C(=O)N[C@@H](Cc3ccsc3)C(=O)N[C@@H](Cc3csc4ccccc34)C(=O)N[C@@H](CCC(N)=O)C(N)=O)NC(=O)[C@H](CC(N)=O)NC(=O)[C@H](Cc3ccccc3)NC(=O)[C@H](C)NC(=O)[C@H](C)NC(=O)[C@H](CN(CC(=O)O)CC(F)(F)F)NC(=O)[C@H](CC(=O)O)NC1=O)NC(=O)[C@H](CC(C)(C)C)NC(=O)[C@H](CC(=O)O)NC2=O (some centres unmarked)', -1.31),
  ('CC(=O)N1CCC[C@@]1(C)C(=O)N[C@@H](CC(=O)O)C(=O)N[C@@H](CC(C)(C)C)C(=O)NC(C)(C)C(=O)N[C@@H](CC(=O)O)C(=O)N[C@@H](CC(=O)O)C(=O)N[C@@H](C)C(=O)N[C@@H](C)C(=O)N[C@@H](Cc1ccccc1)C(=O)N[C@@H](CCC(N)=O)C(=O)NC(C)(C)C(=O)N[C@@H](Cc1ccsc1)C(=O)N[C@@H](Cc1csc2ccccc12)C(=O)N[C@@H](Cc1c[nH]cn1)C(N)=O [I-2228] (Ac-[αMeP]D[tBuAla][Aib]DDAAFQ[Aib][3Thi][Bta]H-NH2)', 0.33),
  ('CC(=O)N1CCC[C@]12CC=CCCCC1(CCCC=CCCCCCC[C@@](C)(C(=O)N[C@@H](Cc3ccccc3)C(=O)N[C@@H](Cc3csc4ccccc34)C(=O)N[C@@H](Cc3c[nH]cn3)C(N)=O)NC(=O)[C@H](CC(N)=O)NC(=O)[C@H](Cc3ccccc3)NC(=O)[C@H](C)NC(=O)[C@H](C)NC(=O)[C@H](CCC(=O)O)NC(=O)[C@H](CC(=O)O)NC1=O)NC(=O)[C@H](CC(C)C)NC(=O)[C@H](CC(=O)O)NC2=O (some centres unmarked)', -1.49),
  ('CC(=O)N1CCC[C@]12CC=CCCCC1(CCCC=CCCCOC(=O)N3CC[C@@](C(=O)N[C@@H](Cc4ccccc4Cl)C(=O)N[C@@H](Cc4csc5ccccc45)C(=O)N[C@@H](CCC(N)=O)C(=O)N4CCC[C@H]4CO)(C3)NC(=O)[C@H](CC(C)C)NC(=O)[C@H](Cc3ccccc3)NC(=O)[C@H](C)NC(=O)[C@H](C)NC(=O)[C@H](Cc3cccc(C(=O)O)c3)NC(=O)[C@H](CC(=O)O)NC1=O)NC(=O)[C@H](CC(C)(C)C)NC(=O)[C@H](CC(=O)O)NC2=O (some centres unmarked)', -1.73);

Could you now look at the following compound, please?
compound COC(=O)CC[C@@H]1NC(=O)[C@H](CC(=O)O)NC(=O)C2(CCCC=CCCCOC(=O)N3CC[C@@](C(=O)N[C@@H](Cc4ccsc4)C(=O)N[C@@H](Cc4csc5ccccc45)C(=O)N[C@@H](CCC(N)=O)C(N)=O)(C3)NC(=O)[C@H](CC(C)C)NC(=O)[C@H](Cc3ccccc3)NC(=O)[C@H](C)NC(=O)[C@H](C)NC1=O)CCCC=CC[C@]1(CCCN1C(C)=O)C(=O)N[C@@H](CC(=O)O)C(=O)N[C@@H](CC(C)(C)C)C(=O)N2 (some centres unmarked) , log10 IC50 observed: 0.24

----------
- target_or_test_system: beta-catenin/TCF4 engagement (Homo sapiens, UniProt P35222)
- Construct: expressed in transfected cells; host or cells: HEK293
- Sequence (P35222 whole entry): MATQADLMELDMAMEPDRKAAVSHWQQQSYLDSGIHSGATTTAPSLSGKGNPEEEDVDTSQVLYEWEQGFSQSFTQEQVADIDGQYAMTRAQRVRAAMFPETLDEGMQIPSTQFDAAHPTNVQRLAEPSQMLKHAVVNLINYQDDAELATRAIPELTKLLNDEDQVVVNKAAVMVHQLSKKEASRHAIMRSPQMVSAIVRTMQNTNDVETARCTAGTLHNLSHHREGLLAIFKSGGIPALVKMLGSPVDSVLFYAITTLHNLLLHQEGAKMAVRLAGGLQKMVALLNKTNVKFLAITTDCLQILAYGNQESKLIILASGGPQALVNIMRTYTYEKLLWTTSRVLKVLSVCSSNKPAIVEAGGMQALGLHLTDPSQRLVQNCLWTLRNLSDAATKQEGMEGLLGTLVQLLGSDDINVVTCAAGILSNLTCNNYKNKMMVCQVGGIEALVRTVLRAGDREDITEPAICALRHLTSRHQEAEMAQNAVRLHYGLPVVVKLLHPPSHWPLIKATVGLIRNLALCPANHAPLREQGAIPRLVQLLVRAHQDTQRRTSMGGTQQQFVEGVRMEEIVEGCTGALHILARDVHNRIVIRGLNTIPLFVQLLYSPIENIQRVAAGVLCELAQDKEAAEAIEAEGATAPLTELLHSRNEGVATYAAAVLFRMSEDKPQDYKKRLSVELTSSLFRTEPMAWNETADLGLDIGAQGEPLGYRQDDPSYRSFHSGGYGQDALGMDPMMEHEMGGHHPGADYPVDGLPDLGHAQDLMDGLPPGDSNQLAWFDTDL
- protocol_text: Nano-BRET target engagement assay (B-cat-Halo & TCF4-Luc in HEK293 cells)
- Type: cell-based
- condition_details: HEK293, @ 10 uM; read-out: NanoBRET % inh @ 10 uM
Classification field: enter yes for inhibition at 10 µM values not below 20%, no for values below it.

INSERT INTO measurements (compound, assigned_class) VALUES
  ('CC(=O)N1CCC[C@]12CC=CCCCC1(CCCC=CCCCOC(=O)N3CC[C@@](C(=O)N[C@@H](Cc4ccsc4)C(=O)N[C@@H](Cc4cccc5ccccc45)C(=O)N[C@@H](Cc4c[nH]cn4)C(N)=O)(C3)NC(=O)[C@H](CC(N)=O)NC(=O)[C@H](Cc3ccccc3)NC(=O)[C@H](C)NC(=O)[C@H](C)NC(=O)[C@H](CC(=O)O)NC(=O)[C@H](CC(=O)O)NC1=O)NC(=O)[C@H](CC(C)(C)C)NC(=O)[C@H](CC(=O)O)NC2=O (some centres unmarked)', 'no'),
  ('CC(=O)N1CCC[C@]12CC=CCCCC1(CCCC=CCCCOC(=O)N3CC[C@@](C(=O)N[C@@H](Cc4ccccc4Cl)C(=O)N[C@@H](Cc4csc5ccccc45)C(=O)N[C@@H](Cc4c[nH]cn4)C(N)=O)(C3)NC(=O)[C@H](CC(N)=O)NC(=O)[C@H](Cc3ccccc3)NC(=O)[C@H](C)NC(=O)[C@H](C)NC(=O)[C@H](CC(=O)O)NC(=O)[C@H](CC(=O)O)NC1=O)NC(=O)[C@H](CC(C)(C)C)NC(=O)[C@H](CC(=O)O)NC2=O (some centres unmarked)', 'yes'),
  ('CC(=O)N1CCC[C@]12CC=CCCCC1(CCCC=CCCCOC(=O)N3CC[C@@](C(=O)N[C@@H](Cc4ccccc4Cl)C(=O)N[C@@H](Cc4csc5ccccc45)C(=O)N[C@@H](CCC(N)=O)C(N)=O)(C3)NC(=O)[C@H](CC(N)=O)NC(=O)[C@H](Cc3ccccc3)NC(=O)[C@H](C)NC(=O)[C@H](C)NC(=O)[C@H](CC(=O)O)NC(=O)[C@H](CC(=O)O)NC1=O)NC(=O)[C@H](CC(C)(C)C)NC(=O)[C@H](CC(=O)O)NC2=O (some centres unmarked)', 'yes'),
  ('CC(=O)N1CCC[C@]12CC=CCCCC1(CCCC=CCCCOC(=O)N3CC[C@@](C(=O)N[C@@H](Cc4ccsc4)C(=O)N[C@@H](Cc4csc5ccccc45)C(=O)N[C@@H](Cc4c[nH]cn4)C(N)=O)(C3)NC(=O)[C@H](CC(N)=O)NC(=O)[C@H](Cc3ccccc3)NC(=O)[C@H](C)NC(=O)[C@H](C)NC(=O)[C@H](CC(=O)O)NC(=O)[C@H](CC(=O)O)NC1=O)NC(=O)[C@H](CC(C)(C)C)NC(=O)[C@H](CC(=O)O)NC2=O (some centres unmarked)', 'yes');

In: Identify whether the reported inhibition at 10 µM of the following compound is 20% or greater: CC(=O)N1CCC[C@]12CC=CCCCC1(CCCC=CCCCOC(=O)N3CC[C@@](C(=O)N[C@@H](Cc4ccsc4)C(=O)N[C@@H](Cc4csc5ccccc45)C(=O)N[C@@H](Cc4c[nH]cn4)C(N)=O)(C3)NC(=O)[C@H](CC(N)=O)NC(=O)[C@H](Cc3ccccc3)NC(=O)[C@H](C)NC(=O)[C@H](C)NC(=O)[C@H](CC(=O)O)NC(=O)[C@H](CC(=O)O)NC1=O)NC(=O)[C@H](CC(C)C)NC(=O)[C@H](CC(=O)O)NC2=O (some centres unmarked)
Out: no
